These data points were gathered from patent US20240360165A1.

Parameter: IC50. Scope: all listed entries.
biological target: CDK12 (aa686-1082)/Cyclin K complex (Homo sapiens, UniProt Q9NYV4); construct: CDK12 (aa686-1082)/Cyclin K complex; assay: CDK12 inhibition assay (Caliper/LabChip EZ Reader kinase assay); assay type: biochemical; details: Table 1; CDK12 (aa686-1082)/Cyclin K 50 nM, ATP 2 mM, 3 hr at 27° C.
Sequence (Q9NYV4 686-1082, species assumed): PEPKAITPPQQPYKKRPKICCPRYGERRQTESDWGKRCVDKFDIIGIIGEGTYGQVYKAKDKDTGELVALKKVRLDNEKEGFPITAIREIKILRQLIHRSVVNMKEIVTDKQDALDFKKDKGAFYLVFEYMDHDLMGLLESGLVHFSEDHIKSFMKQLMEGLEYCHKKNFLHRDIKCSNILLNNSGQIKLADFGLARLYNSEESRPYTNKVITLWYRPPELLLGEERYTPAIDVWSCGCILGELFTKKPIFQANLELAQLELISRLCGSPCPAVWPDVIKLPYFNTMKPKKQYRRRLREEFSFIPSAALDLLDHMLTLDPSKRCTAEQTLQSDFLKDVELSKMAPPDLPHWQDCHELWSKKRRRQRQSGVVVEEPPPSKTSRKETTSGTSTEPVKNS
Sequence (O75909 whole entry partner, species assumed, the tested form may be a part): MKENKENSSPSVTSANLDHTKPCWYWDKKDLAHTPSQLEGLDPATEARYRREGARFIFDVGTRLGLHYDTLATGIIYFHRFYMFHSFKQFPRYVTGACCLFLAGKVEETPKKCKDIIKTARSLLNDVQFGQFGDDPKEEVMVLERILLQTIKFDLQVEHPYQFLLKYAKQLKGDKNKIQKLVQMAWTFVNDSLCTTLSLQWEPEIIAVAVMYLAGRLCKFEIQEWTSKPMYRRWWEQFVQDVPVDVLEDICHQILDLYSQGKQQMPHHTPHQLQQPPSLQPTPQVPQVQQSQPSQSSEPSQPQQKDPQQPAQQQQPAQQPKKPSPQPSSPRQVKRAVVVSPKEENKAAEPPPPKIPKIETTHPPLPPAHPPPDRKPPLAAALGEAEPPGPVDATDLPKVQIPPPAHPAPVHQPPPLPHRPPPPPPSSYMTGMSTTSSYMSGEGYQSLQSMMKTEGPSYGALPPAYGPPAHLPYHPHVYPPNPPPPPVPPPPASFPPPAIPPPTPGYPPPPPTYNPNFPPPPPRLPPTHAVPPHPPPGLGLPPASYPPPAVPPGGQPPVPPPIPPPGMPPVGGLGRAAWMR

Here is how some compounds turned out for IC50.
Prompt: What value of IC50 has been reported for the following compound? CC[C@@]1(O)CCN(C(=O)c2ccc3c(-c4nc(N[C@H]5CCCNC5)ncc4C(F)(F)F)c[nH]c3c2)C1 (single isomer, unassigned) [Compound 309]
Response: 0.2 to 5 µM

Prompt: What value of IC50 has been reported for the following compound? FC(F)(F)c1cnc(N[C@H]2CCCNC2)nc1-c1c[nH]c2cc(-c3ccc4ccncc4c3)ccc12 [Compound 325]
Response: 0.2 to 5 µM

Prompt: What value of IC50 has been reported for the following compound? CCc1cnc(N[C@H]2CCCNC2)nc1-c1c[nH]c2cc(S(C)(=O)=O)ccc12 [Compound 271]
Response: > 5 µM

Next:
Prompt: What value of IC50 has been reported for the following compound? CC1(O)CCN(C(=O)c2ccc3c(-c4nc(N[C@H]5CCCNC5)ncc4C(F)(F)F)c[nH]c3c2)CC1 [Compound 282]
Response: 0.2 to 5 µM
